target.entity: T1, EsCas13d, nuclease-dead (Eubacterium siraeum, UniProt B0MS50, R295A;H300A;R849A;H854A)
T1 sequence: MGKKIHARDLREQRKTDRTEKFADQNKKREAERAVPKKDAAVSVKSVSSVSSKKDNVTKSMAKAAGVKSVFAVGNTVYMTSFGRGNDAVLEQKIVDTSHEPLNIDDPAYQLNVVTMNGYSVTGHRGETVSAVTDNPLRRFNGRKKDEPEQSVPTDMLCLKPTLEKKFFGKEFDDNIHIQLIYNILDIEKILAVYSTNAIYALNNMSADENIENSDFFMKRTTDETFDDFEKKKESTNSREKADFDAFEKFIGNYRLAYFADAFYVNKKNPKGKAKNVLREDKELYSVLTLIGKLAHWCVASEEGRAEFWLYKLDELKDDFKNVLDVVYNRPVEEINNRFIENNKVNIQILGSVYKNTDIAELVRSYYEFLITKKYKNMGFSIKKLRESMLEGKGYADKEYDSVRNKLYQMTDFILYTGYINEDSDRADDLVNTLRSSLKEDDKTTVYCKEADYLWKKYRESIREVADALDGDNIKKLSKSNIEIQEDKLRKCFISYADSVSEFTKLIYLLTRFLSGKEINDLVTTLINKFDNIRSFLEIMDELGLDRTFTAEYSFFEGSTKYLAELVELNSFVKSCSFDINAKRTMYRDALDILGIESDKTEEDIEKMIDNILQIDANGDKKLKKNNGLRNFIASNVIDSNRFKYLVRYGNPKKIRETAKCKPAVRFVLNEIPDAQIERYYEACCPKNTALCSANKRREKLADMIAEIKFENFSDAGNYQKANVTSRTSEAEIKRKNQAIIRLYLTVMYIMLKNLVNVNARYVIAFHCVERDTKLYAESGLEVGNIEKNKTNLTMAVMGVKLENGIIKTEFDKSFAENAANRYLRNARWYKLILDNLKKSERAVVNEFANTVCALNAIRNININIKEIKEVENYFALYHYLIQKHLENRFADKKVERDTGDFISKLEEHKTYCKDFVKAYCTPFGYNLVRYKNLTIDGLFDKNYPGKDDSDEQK
assay.procedure: crRNA (strand 1, pre-loaded); Mg2+; 40 mM Tris-HCl pH 7.5, 150 mM NaCl, 6 mM MgCl2, 1 mM DTT, 0.1% Tween-20, 0.2 mg/ml BSA; 25 C; 10 min per concentration, then washed
details: tags: His6-TwinStrep-SUMO cleaved; N-terminal SNAP kept (SNAP-Surface 488); label: 3' end held by stalled T7 RNA polymerase
measured.property: Kd (nM)
State just the number; it will be interpreted in nM.

Exercise: Requested read-out: Kd. Entry: target 3 insC 3' of 22,insC 3' of 4 (mixed) RNA 1: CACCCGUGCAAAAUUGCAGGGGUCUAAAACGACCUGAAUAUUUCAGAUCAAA RNA 2: GGGAAUGGAUCCACAUCUACGAAUUCGUUUCUUGAUCUGAAAUAUUCAGCGUCUGCAGAUCGGAAGAGCACACGU
Solution: 39

Exercise: Requested read-out: Kd. Entry: target 2 MT 5'PFS UUU 3'PFS AAG (mixed) RNA 1: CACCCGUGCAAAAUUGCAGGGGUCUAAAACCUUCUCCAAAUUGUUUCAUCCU RNA 2: GGGAAUGGAUCCACAUCUACGAAUUCUUUAGGAUGAAACAAUUUGGAGAAGAAGAGAUCGGAAGAGCACACGU
Solution: 7.1

Exercise: Requested read-out: Kd. Entry: target 2 MT 5'PFS GAC 3'PFS UUA (mixed) RNA 1: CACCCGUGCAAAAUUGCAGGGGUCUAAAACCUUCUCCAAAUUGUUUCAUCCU RNA 2: GGGAAUGGAUCCACAUCUACGAAUUCGACAGGAUGAAACAAUUUGGAGAAGUUAAGAUCGGAAGAGCACACGU
Solution: 14.3

Exercise: Requested read-out: Kd. Entry: target 1 insU 3' of 17,insA 3' of 6 (mixed) RNA 1: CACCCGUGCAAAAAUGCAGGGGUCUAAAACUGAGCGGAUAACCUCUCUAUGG RNA 2: GGGAAUGGAUCCACAUCUACGAAUUCGUACCAUAGUAGAGGUUAUCCAGCUCACCGAGAUCGGAAGAGCACACGU
Solution: 45

Exercise: Requested read-out: Kd. Entry: target 2 MT 5'PFS CCU 3'PFS CCA (mixed) RNA 1: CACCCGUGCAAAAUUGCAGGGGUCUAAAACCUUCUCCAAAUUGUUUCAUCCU RNA 2: GGGAAUGGAUCCACAUCUACGAAUUCCCUAGGAUGAAACAAUUUGGAGAAGCCAAGAUCGGAAGAGCACACGU
Solution: 1.72

Exercise: Requested read-out: Kd. Entry: target 1 U19G (mixed) RNA 1: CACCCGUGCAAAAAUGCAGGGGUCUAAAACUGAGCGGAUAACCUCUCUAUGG RNA 2: GGGAAUGGAUCCACAUCUACGAAUUCGUACCAGAGAGAGGUUAUCCGCUCACCGAGAUCGGAAGAGCACACGU
Solution: 48

Exercise: Requested read-out: Kd. Entry: target 1 A18G (mixed) RNA 1: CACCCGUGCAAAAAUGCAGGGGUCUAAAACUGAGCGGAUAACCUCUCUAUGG RNA 2: GGGAAUGGAUCCACAUCUACGAAUUCGUACCAUGGAGAGGUUAUCCGCUCACCGAGAUCGGAAGAGCACACGU
Solution: 94

Exercise: Requested read-out: Kd. Entry: target 3 C6U,U8C (mixed) RNA 1: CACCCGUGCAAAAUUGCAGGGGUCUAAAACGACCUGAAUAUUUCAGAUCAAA RNA 2: GGGAAUGGAUCCACAUCUACGAAUUCGUUUUUGAUCUGAAAUACUUAGGUCUGCAGAUCGGAAGAGCACACGU
Solution: 33.5

Exercise: Requested read-out: Kd. Entry: target 3 U2A,A5G (mixed) RNA 1: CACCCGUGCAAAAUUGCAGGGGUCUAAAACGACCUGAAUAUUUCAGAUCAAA RNA 2: GGGAAUGGAUCCACAUCUACGAAUUCGUUUUUGAUCUGAAAUAUUCGGGACUGCAGAUCGGAAGAGCACACGU
Solution: 3.12

Exercise: Requested read-out: Kd. Entry: target 1 insU 3' of 21,insC 3' of 13 (mixed) RNA 1: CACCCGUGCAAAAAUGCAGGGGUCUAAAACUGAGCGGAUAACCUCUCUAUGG RNA 2: GGGAAUGGAUCCACAUCUACGAAUUCGUACCUAUAGAGAGCGUUAUCCGCUCACCGAGAUCGGAAGAGCACACGU
Solution: 32

Exercise: Requested read-out: Kd. Entry: target 2 MT 5'PFS CAU 3'PFS AAA (mixed) RNA 1: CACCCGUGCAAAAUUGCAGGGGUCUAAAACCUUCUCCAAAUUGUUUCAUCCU RNA 2: GGGAAUGGAUCCACAUCUACGAAUUCCAUAGGAUGAAACAAUUUGGAGAAGAAAAGAUCGGAAGAGCACACGU
Solution: 4.2

Exercise: Requested read-out: Kd. Entry: target 1 insG 3' of 20,insA 3' of 11 (mixed) RNA 1: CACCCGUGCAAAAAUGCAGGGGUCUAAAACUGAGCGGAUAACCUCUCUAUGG RNA 2: GGGAAUGGAUCCACAUCUACGAAUUCGUACCAGUAGAGAGGUAUAUCCGCUCACCGAGAUCGGAAGAGCACACGU
Solution: 75

Exercise: Requested read-out: Kd. Entry: target 1 insG 3' of 10,insU 3' of 9 (mixed) RNA 1: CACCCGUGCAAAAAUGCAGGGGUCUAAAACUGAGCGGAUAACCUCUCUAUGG RNA 2: GGGAAUGGAUCCACAUCUACGAAUUCGUACCAUAGAGAGGUUGAUUCCGCUCACCGAGAUCGGAAGAGCACACGU
Solution: 18.1
